I'd be grateful if you could share measured pIC50 for these entries.
- EXPERIMENTAL_TARGET: Chk-1 kinase (Homo sapiens (Human), UniProt O14757)
- Sequence (O14757 whole entry): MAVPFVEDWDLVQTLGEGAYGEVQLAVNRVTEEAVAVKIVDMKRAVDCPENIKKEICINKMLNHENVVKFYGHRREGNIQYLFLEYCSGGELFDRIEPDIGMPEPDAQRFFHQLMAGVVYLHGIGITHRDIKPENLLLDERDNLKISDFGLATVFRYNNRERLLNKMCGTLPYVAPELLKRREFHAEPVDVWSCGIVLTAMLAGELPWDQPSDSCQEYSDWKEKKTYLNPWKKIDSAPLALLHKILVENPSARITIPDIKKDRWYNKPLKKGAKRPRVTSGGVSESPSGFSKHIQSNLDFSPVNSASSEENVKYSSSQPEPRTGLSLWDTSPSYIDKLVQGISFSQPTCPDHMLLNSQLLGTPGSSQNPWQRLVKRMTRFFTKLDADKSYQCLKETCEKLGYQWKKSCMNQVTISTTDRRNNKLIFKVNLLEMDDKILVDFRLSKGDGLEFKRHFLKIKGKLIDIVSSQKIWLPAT
- EXPERIMENT_DESCRIPTION: Chk-1 kinase inhibiting activity (33P-ATP filter assay, CHKtide substrate)
- Type: biochemical
- CONDITION_DESCRIPTION: Chk-1 kinase, Table 3; read-out: IC50
Where a name gives a salt, the structure may show the parent alone.
Give bare numbers, as −log10 of the molar value.

> print(dat)
                                   compound  readout.value
1  COc1cc(CNCc2ccc(F)cc2)ccc1NC(=O)Nc1cnc(C#N)cn1 [Example 57, hydrochloride]           8.05
2  COc1cc(CNCc2cccc(F)c2)ccc1NC(=O)Nc1cnc(C#N)cn1 [Example 58, hydrochloride]           7.68
3  COc1cc(CCNCc2ccc(N3CCN(C)CC3)cc2)c(Cl)cc1NC(=O)Nc1cnc(C#N)cn1 [Example 50, hydrochloride]           9.35
4  COc1cc(CCN[C@@H](C)c2ccc(N3CCNCC3)cc2)c(Cl)cc1NC(=O)Nc1cnc(C#N)cn1 [Example 52, hydrochloride]           9.89
5  N#Cc1cnc(NC(=O)Nc2ccc(CCNCc3ccccc3Cl)c(Cl)c2)cn1 [Example 10]           7.21
6  N#Cc1cnc(NC(=O)Nc2ccc(CCNCc3cccc(Cl)c3)c(Cl)c2)cn1 [Example 13, hydrochloride]           7.43

// for each compound in input: emit pIC50
1. COc1cc(CCN[C@@H](C)c2ccc(F)cc2)ccc1NC(=O)Nc1cnc(C#N)cn1 [Example 44]
2. COc1ccc(CNCCc2ccc(NC(=O)Nc3cnc(C#N)cn3)cc2Cl)cc1 [Example 15]
3. COc1cc(CNCc2ccccc2)ccc1NC(=O)Nc1cnc(C#N)cn1 [Example 22]
4. COc1cc(CCNCc2ccc(F)cc2)ccc1NC(=O)Nc1cnc(C)cn1 [Example 27, hydrochloride]
5. N#Cc1cnc(NC(=O)Nc2ccc(CCNCc3ccc(F)cc3F)cc2)cn1 [Example 3]
6. COc1ccc(CNCc2ccc(NC(=O)Nc3cnc(C#N)cn3)c(OC)c2)cc1 [Example 60]
7. COc1cc(CCNCc2ccc(F)cc2)c(Cl)cc1NC(=O)Nc1cnc(C#N)cn1 [Example 37, hydrochloride]

1: 8.29; 2: 8.46; 3: 7.00; 4: 7.48; 5: 6.75; 6: 8.80; 7: 8.80

// for each compound in input: emit pIC50
1. COc1cc(CCNCc2cccc(F)c2)c(Cl)cc1NC(=O)Nc1cnc(C#N)cn1 [Example 19, hydrochloride]
2. COc1cc(CCN[C@H](C)c2ccc(F)cc2)ccc1NC(=O)Nc1cnc(C#N)cn1 [Example 43]
3. COc1cccc(CNCCc2cc(OC)c(NC(=O)Nc3cnc(C#N)cn3)cc2Cl)c1 [Example 48, hydrochloride]
4. N#Cc1cnc(NC(=O)Nc2ccc(CCNCc3ccc(C(F)(F)F)cc3)c(Cl)c2)cn1 [Example 17, hydrochloride]
5. CN1CCN(c2cccc(CNCCc3ccc(NC(=O)Nc4cnc(C#N)cn4)cc3Cl)c2)CC1 [Example 38]

1: 8.92; 2: 8.48; 3: 9.33; 4: 7.11; 5: 8.04

// for each compound in input: emit pIC50
1. N#Cc1cnc(NC(=O)Nc2ccc(CCNCCc3ccc(F)cc3)c(Cl)c2)cn1 [Example 7]
2. N#Cc1cnc(NC(=O)Nc2ccc(CCNCCc3ccc(F)cc3F)c(Cl)c2)cn1 [Example 28]
3. COc1cc(CCNCc2ccccc2)ccc1NC(=O)Nc1cnc(C)cn1 [Example 32, hydrochloride]
4. N#Cc1cnc(NC(=O)Nc2ccc(CCNCc3ccccc3F)c(Cl)c2)cn1 [Example 23]

1: 7.80; 2: 7.33; 3: 7.57; 4: 7.96

// for each compound in input: emit pIC50
1. COc1cc(CCNCc2ccc(F)cc2F)ccc1NC(=O)Nc1cnc(C#N)cn1 [Example 30]
2. N#Cc1cnc(NC(=O)Nc2ccc(CCNCc3ccccc3)cc2)cn1 [Example 1]
3. Cc1cc(NC(=O)Nc2cnc(C#N)cn2)ccc1CCNCc1ccc(F)cc1 [Example 36, hydrochloride]

8.19
6.70
8.00
